FYI, the data here is from paper PMC11310338.

Measured target: T1, SCAF4-CID (human, UniProt O95104 1-139)
T1 sequence: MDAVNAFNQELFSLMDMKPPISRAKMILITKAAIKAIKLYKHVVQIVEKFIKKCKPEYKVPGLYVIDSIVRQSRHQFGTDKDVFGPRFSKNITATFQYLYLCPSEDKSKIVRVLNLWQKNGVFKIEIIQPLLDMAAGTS
Experiment: competition FP
Readout: IC50 (nM)
Numbers only; they are read as nM.

Prompt: I have this binder here, GTGGG (ssDNA) [SCAF4_LS (D2_5-nt)] , and I need its recorded IC50.
Response: 2750
